- target_desc: Vascular endothelial growth factor receptor 2 (Homo sapiens)
- Sequence (P35968 whole entry, the tested form may be a part): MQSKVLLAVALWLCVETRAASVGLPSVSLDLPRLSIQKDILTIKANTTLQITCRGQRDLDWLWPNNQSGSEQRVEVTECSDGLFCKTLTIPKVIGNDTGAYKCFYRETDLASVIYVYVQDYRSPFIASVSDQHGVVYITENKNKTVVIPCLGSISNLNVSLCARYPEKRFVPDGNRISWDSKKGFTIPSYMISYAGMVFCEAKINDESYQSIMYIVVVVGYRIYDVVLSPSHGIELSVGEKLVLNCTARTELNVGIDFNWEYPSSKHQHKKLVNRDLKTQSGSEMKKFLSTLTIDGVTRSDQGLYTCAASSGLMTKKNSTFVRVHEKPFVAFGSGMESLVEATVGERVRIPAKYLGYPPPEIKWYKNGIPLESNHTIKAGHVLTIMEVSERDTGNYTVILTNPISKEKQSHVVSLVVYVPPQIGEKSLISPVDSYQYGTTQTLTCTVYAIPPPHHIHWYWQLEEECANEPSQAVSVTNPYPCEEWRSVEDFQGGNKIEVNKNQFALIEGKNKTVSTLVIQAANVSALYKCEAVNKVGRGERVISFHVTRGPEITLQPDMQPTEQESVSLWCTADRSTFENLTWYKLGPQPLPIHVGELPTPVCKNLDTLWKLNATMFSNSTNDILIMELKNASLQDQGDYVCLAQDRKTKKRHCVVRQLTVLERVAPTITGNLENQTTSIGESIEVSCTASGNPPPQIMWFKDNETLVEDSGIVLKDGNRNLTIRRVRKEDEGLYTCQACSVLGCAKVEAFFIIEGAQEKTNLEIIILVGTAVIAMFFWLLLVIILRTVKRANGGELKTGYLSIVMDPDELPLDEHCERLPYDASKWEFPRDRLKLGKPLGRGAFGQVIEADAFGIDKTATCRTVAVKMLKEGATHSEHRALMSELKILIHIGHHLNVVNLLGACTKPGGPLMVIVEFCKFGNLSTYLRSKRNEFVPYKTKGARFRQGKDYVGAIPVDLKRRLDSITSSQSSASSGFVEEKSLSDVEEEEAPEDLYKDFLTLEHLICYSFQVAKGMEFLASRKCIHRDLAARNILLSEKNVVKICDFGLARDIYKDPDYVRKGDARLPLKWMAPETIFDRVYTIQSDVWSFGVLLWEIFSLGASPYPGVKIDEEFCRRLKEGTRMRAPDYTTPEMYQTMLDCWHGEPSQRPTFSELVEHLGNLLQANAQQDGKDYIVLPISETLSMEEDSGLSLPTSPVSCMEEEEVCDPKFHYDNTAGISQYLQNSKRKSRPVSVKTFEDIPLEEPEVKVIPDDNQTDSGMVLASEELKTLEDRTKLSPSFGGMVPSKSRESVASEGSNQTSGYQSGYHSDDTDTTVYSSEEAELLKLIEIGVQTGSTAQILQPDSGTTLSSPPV
- assay_details: Inhibition of purified recombinant VEGFR2 kinase domain (unknown origin) using biotin as substrate preincubated for 5 mins followed by substrate addition and measured after 30 to 60 mins in presence of ATP by HTRF assay
recorded_endpoint: IC50 (µM)

> print(dat)
                                   molecule  recorded.endpoint  experimental.value
1  CCCCC(=O)Nc1cc(Oc2ccc(Nc3nccc4[nH]cc(-c5ccc(F)cc5)c(=O)c34)cc2F)ccn1               IC50              0.0269
2  CCCC(=O)Nc1cc(Oc2ccc(Nc3nccc4[nH]cc(-c5ccc(F)cc5)c(=O)c34)cc2F)ccn1               IC50              0.0194
